Assay: blockers of VCAM1 upregulation by TNFa – imaging, TNFa stimulus, retest and dose response, confirmation (AID 1013);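 also: compound on cells 1 h before TNFa then 24 h more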
Details: TNFa-stimulated cells, VCAM1 expression imaging; cell count; at 10 µM; stronger effect = lower value
cell count for assorted compounds
Reply with just the number (in %).

# example entries with known answers
# Compound, cell count [%]
rows = [
    ("O=C(CS(=O)c1ccc(C(F)(F)F)cc1[N+](=O)[O-])Oc1ccc(Cl)cc1 (stereo not given)", 111),
    ("CCN(CC)c1ccc2c(c1)OC(N)=C(C#N)C2c1cccnc1 (stereo not given)", 29.8),
    ("CN(C)c1ccc(C(=O)c2ccc(N(C)C)c3ccccc23)cc1", 27.7),
]

[Q] Give a short answer stating reported cell count for CC1CCC/C=C/C2CC(O)CC2C(O)/C=C/C(=O)O1 (stereo not given) .
[A] 19.2

[Q] Give a short answer stating reported cell count for C#CC(=O)N(c1cccc(OC)c1)C(C(=O)NC1CCCC1)c1cccs1 (stereo not given) .
[A] 0.98

[Q] Give a short answer stating reported cell count for `CC(=O)c1c(C)oc2ccc(N(C(C)=O)S(=O)(=O)c3ccc(Cl)c([N+](=O)[O-])c3)cc12` .
[A] 104

[Q] Give a short answer stating reported cell count for O=C(CS(=O)c1ccc(C(F)(F)F)cc1[N+](=O)[O-])Oc1ccccc1 (stereo not given) .
[A] 109

[Q] Give a short answer stating reported cell count for `COc1ccc(NC(=O)/C(Cl)=C(/Cl)S(=O)(=O)Cc2ccc(C)cc2)cn1` .
[A] 22.9

[Q] Give a short answer stating reported cell count for `CSc1nc(N(C)NC(=O)c2cccc(C)c2)c2ccccc2n1` .
[A] 39.5

[Q] Give a short answer stating reported cell count for `COc1ccc(-c2cc3ccccc3oc2=O)cc1NC(=O)c1ccc([N+](=O)[O-])o1` .
[A] 107

[Q] Give a short answer stating reported cell count for `O=C1c2cccc3c([N+](=O)[O-])ccc(c23)C(=O)N1c1ccc(Cl)cn1` .
[A] 103

[Q] Give a short answer stating reported cell count for `Cc1cccc(CS(=O)(=O)c2nnc([C@H](Cc3ccccc3)NC(=O)OC(C)(C)C)o2)c1` .
[A] 99.2

[Q] Give a short answer stating reported cell count for N#CC1=C(N)Oc2c(ccc3ccccc23)C1c1cccs1 (stereo not given) .
[A] 69.2

----------
cell count for assorted compounds
Test: blockers of VCAM1 upregulation by TNFa – imaging, TNFa stimulus, retest and dose response, confirmation (AID 1013);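 also: compound on cells 1 h before TNFa then 24 h more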
Settings: TNFa-stimulated cells, VCAM1 expression imaging; cell count; at 10 µM; stronger effect = lower value

# example entries with known answers
# Structure Smiles, Observed
data = [
    ("O=C(c1ccc([N+](=O)[O-])cc1)N(Cc1ccc(Cl)cc1)N1C(=O)CCCC1=O", "91.5%"),
    ("O=C(COc1ccccc1-c1ccccc1)N/N=C/c1cccc2ccccc12", "87.5%"),
]

Let's switch to this compound now.
[Q] Give a short answer stating reported cell count for `O=C(COC(=O)c1ccccc1C(=O)c1ccc(Cl)c([N+](=O)[O-])c1)NC1CCCCCC1` .
[A] 91%

----------
Assay: blockers of VCAM1 upregulation by TNFa – imaging, TNFa stimulus, retest and dose response, confirmation (AID 1013);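 also: compound on cells 1 h before TNFa then 24 h more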
Conditions: TNFa-stimulated cells, VCAM1 expression imaging; cell count; at 10 µM; stronger effect = lower value
Quantity: cell count (%)
Reply with just the number (in %).

# Compound, Display Unit, Observed
rows = [
    ("COc1ccc(NC(=O)/C(Cl)=C(/Cl)S(=O)Cc2ccc(C)cc2)cn1 (configuration not stated)", "%", 55),
    ("COc1cc2c(O)c3c(c(-c4ccc5c(c4)OCO5)c2cc1OC)C(=O)OC3", "%", 86.8),
    ("O=Cc1cc2ccccc2nc1SCc1ccc(Cl)cc1", "%", 99.9),
    ("Cc1cccc(OCC(=O)Nc2cc(C)ccc2O)c1", "%", 91.2),
    ("OCCN=C1CCCc2c1[nH]c1ccc(Br)cc21", "%", 76.3),
    ("CC1=C([N+](=O)[O-])C(c2ccccc2)C2=C(N1)c1ccccc1C2=O (configuration not stated)", "%", 111),
]

[Q] Give a short answer stating reported cell count for `COc1ccc(-n2nnnc2S(=O)(=O)CC(=O)N2CCCCC2)cc1` .
[A] 4.64

[Q] Give a short answer stating reported cell count for `O=S(=O)(c1ccc2c(c1)C(=NO)c1cc(S(=O)(=O)N3CCCCC3)ccc1-2)N1CCCCC1` .
[A] 118

[Q] Give a short answer stating reported cell count for CCCOc1ccc(C(=O)C(CN2CCOCC2)c2ccccc2)cc1 (configuration not stated) .
[A] 79.7

[Q] Give a short answer stating reported cell count for `Cc1ccc2[nH]c3c(c2c1)CCC3=O` .
[A] 72

----------
Experiment: blockers of VCAM1 upregulation by TNFa – imaging, TNFa stimulus, retest and dose response, confirmation (AID 1013);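 also: compound on cells 1 h before TNFa then 24 h more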
Conditions: TNFa-stimulated cells, VCAM1 expression imaging; cell count; at 10 µM; stronger effect = lower value
Quantity: cell count (%)
Reply with just the number (in %).

# example entries with known answers
# Structure Smiles, Display Unit, Observed
measured = [
    ("N#CCc1nc2c3c4c(sc3ncn2n1)CCCC4", "%", 87.3),
    ("COc1ccc(NS(=O)(=O)c2cc(C)ccc2NC(=O)c2cc(C)oc2C)cc1", "%", 71),
    ("COc1ccc(Oc2cc(NC(=O)c3nn(C)cc3[N+](=O)[O-])cc([N+](=O)[O-])c2)cc1", "%", 114),
]

[Q] Give a short answer stating reported cell count for `O=C(N/N=C/C=C/c1ccccc1)c1n[nH]c2c1CCC2` .
[A] 103

[Q] Give a short answer stating reported cell count for `Cc1cc(C)c(S(=O)(=O)Nc2ccc3c4c(cccc24)CC3)c(C)c1` .
[A] 106

[Q] Give a short answer stating reported cell count for `CCOC(=O)c1[nH]c(C)c(C(=O)c2ccc(C)cc2)c1C` .
[A] 85.6

[Q] Give a short answer stating reported cell count for `CC1=CC(C)(C)N(S(=O)(=O)c2ccc(C)cc2)c2cc(C)ccc21` .
[A] 113
